The following compounds are listed with their measured pIC50 values.
molecular target: α-glucosidase (Saccharomyces cerevisiae); test: biochemical; details: positive control 1-deoxynojirimycin; DMSO blank; read-out: α-glucosidase inhibitory activity IC50
pIC50: −log10 of the molar value.
MEASURED_QUANTITY: pIC50

[
  {
    "COMPOUND": "COC1=CC(=O)C(C)(O)C(O)C1C (centres unmarked) [Compound 12, Talaketides F]",
    "MEASURED_RESULT": "< 4.00"
  },
  {
    "COMPOUND": "COC1=CC(=O)C(C)(O)C(O)C1C (centres unmarked) [Compound 11, Talaketides E]",
    "MEASURED_RESULT": "< 4.00"
  }
]

* * *

Property: pIC50; scope: individual compounds
molecular target: α-glucosidase (Saccharomyces cerevisiae, UniProt P53341); test: biochemical; details: read-out: α-glucosidase inhibitory activity IC50
Sequence (P53341 whole entry): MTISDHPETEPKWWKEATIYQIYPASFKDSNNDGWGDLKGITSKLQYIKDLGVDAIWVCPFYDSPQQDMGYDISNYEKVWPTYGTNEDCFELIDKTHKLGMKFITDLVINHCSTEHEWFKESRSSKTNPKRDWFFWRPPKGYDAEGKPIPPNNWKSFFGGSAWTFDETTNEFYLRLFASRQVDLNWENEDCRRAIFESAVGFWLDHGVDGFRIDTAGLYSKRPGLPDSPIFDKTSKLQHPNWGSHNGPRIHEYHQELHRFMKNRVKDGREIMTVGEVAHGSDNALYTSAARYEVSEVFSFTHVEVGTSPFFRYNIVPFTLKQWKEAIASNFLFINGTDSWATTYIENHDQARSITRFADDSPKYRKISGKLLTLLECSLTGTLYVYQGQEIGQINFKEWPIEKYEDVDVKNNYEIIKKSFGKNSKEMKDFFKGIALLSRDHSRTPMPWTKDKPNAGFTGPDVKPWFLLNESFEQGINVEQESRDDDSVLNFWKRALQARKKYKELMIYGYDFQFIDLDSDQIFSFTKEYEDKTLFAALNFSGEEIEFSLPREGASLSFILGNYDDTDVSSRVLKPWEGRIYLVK
pIC50: −log10 of the molar value.
MEASURED_QUANTITY: pIC50

[
  {
    "COMPOUND": "COC1=CC(=O)C(C)(O)C1(O)C(C)=O (stereo not shown)",
    "MEASURED_QUANTITY": "pIC50",
    "MEASURED_RESULT": "< 4.00"
  },
  {
    "COMPOUND": "C/C=C/[C@@H]1Oc2c(-c3ccccc3)c[nH]c(=O)c2[C@@H]2[C@H]1CCC[C@H]2C",
    "MEASURED_QUANTITY": "pIC50",
    "MEASURED_RESULT": 4.24
  },
  {
    "COMPOUND": "C/C=C/[C@@H]1[C@H]2C[C@@H](C)CC[C@@H]2C(C)=C[C@H]1C(=O)c1c(O)c(-c2ccc(O)cc2)c[nH]c1=O",
    "MEASURED_QUANTITY": "pIC50",
    "MEASURED_RESULT": 4.78
  },
  {
    "COMPOUND": "CCC(C)C(=O)OC1(C)C(=O)C(C)=C(OC)CC1OC (stereo not shown)",
    "MEASURED_QUANTITY": "pIC50",
    "MEASURED_RESULT": "< 4.00"
  },
  {
    "COMPOUND": "CCC(C)C(=O)OC1(C)C(=O)C(C)=C(OC)C1O (stereo not shown)",
    "MEASURED_QUANTITY": "pIC50",
    "MEASURED_RESULT": "< 4.00"
  },
  {
    "COMPOUND": "C/C=C/[C@@H]1Oc2c(-c3ccccc3)cn(O)c(=O)c2[C@@H]2[C@H]1CCC[C@H]2C",
    "MEASURED_QUANTITY": "pIC50",
    "MEASURED_RESULT": "< 4.00"
  },
  {
    "COMPOUND": "COC1=CC(=O)C(C)(O)C(O)C1C (stereo not shown)",
    "MEASURED_QUANTITY": "pIC50",
    "MEASURED_RESULT": "< 4.00"
  }
]

* * *

biological target: UniProt:P53341; experiment: biochemical
pIC50: −log10 of the molar value.

[
  {
    "COMPOUND": "CCC(C)CC(C)C=C(C)C1OC(c2c(O)c(-c3ccc(O)cc3)cn(C)c2=O)CC=C1C (stereo not drawn)",
    "TARGET_ENTITY": "UniProt:P53341",
    "pIC50": 4.43
  },
  {
    "COMPOUND": "CC[C@H](C)C[C@@H](C)/C=C(\\C)[C@@H]1O[C@H](c2c(O)c(-c3ccc(O)cc3)cn(C)c2=O)CC[C@H]1C",
    "TARGET_ENTITY": "UniProt:P53341",
    "pIC50": 4.77
  },
  {
    "COMPOUND": "CCC(C)CC(C)C=C(C)C1OC(c2c(O)c(-c3ccccc3)cn(C)c2=O)CCC1C (stereo not drawn)",
    "TARGET_ENTITY": "UniProt:P53341",
    "pIC50": 4.90
  }
]
